- Assayed Target: GALK (Homo sapiens (Human), UniProt P51570)
- Sequence (P51570 whole entry): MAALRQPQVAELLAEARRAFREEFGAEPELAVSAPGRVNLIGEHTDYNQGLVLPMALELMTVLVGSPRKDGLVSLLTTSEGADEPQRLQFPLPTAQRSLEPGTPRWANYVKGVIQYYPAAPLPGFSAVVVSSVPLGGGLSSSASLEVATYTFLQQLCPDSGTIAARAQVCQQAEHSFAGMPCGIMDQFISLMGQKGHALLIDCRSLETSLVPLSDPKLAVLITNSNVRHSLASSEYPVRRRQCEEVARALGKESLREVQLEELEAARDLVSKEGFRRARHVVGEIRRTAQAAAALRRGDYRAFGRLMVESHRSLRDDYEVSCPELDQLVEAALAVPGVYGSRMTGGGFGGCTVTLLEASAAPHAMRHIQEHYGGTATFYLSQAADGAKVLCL
pIC50: −log10 of the molar value.
Entry flag: rule met if pIC50 reaches 5; rule not met if it does not.

| Molecule | Class Name |
| --- | --- |
| O=C1CCCC2=C1C(c1ccncc1Br)N=C(Nc1nc3ccccc3o1)N2 (stereo not drawn) | rule not met |
| O=C1CCCC2=C1C(c1ncccc1Br)N=C(Nc1nc3ccccc3o1)N2 (stereo not drawn) | rule met |
| CC1=C(C(=O)N(C)C)C(c2ccccc2Br)N=C(Nc2nc3ccccc3o2)N1 (stereo not drawn) | rule not met |
| O=C1CCCC2=C1C(c1cccnc1Cl)N=C(Nc1nc3ccccc3o1)N2 (stereo not drawn) | rule not met |
| COc1ccccc1C1N=C(Nc2nc3ccccc3o2)NC2=C1C(=O)CCC2 (stereo not drawn) | rule not met |
| O=C1CCCC2=C1C(c1n[nH]cc1Cl)NC(Nc1nc3ccccc3o1)=N2 (stereo not drawn) | rule met |
| O=C1CCCC2=C1C1(CCSC1)N=C(Nc1nc3ccccc3o1)N2 (stereo not drawn) | rule met |
| O=C1CCCC2=C1C(c1ccc(F)cc1)N=C(Nc1nc3ccccc3o1)N2 (stereo not drawn) | rule not met |
| COc1ccc(NC(=O)C2=C(C)NC(Nc3nc4ccccc4o3)=NC2c2ccccc2Br)cc1 (stereo not drawn) | rule met |
| O=C1CCCC2=C1C(c1ccncc1Cl)N=C(Nc1nc3ccccc3o1)N2 (stereo not drawn) | rule not met |
| CN(C)c1ccc(C2N=C(Nc3nc4ccccc4o3)NC3=C2C(=O)CCC3)cc1 (stereo not drawn) | rule not met |

====

Let's look at some molecules and their measured IC50.
- Assayed Target: GALK (Homo sapiens (Human))

| Molecule | IC50 (µM) |
| --- | --- |
| O=C1CCCC2=C1C(c1ccccc1C(F)(F)F)N=C(Nc1nc3ccccc3o1)N2 (stereo not drawn) [Compound 39] | 12.2 |
| CNC(=O)C1=C(C)NC(Nc2nc3ccccc3o2)=NC1c1n[nH]cc1Cl (stereo not drawn) [Compound 109] | 18.3 |
| Cc1ccc2nc(NC3=NC4(CCCC4)C4=C(CCCC4=O)N3)oc2c1 [Compound 28] | 21.1 |

Value source: patent US9447087B2
